These data points were gathered from patent US9540314B2.

assay method text: log P by HPLC on a reversed-phase column (C 18), EEC Directive 79/831 Annex V.A8
Type: physicochemical
recorded conditions: Table 1; HPLC C 18, 40° C., 0.1% aqueous formic acid and acetonitrile; several values = mixture of 2 or more isomers
Description: In table 1, the log P values were determined in accordance with EEC Directive 79/831 Annex V.A8 by HPLC (High Performance Liquid Chromatography) on a reversed-phase column (C 18), using the method described below: Temperature: 40° C.; Mobile phases: 0.1% aqueous formic acid and acetonitrile; linear gradient from 10% acetonitrile to 90% acetonitrile. […]
measured parameter: logP
When you answer, write just the number.

Q: Which logP value is on record for Cn1cc(C(=O)N(Cc2cc(C3=CCCCC3)ccc2Cl)C2CC2)c(C(F)F)n1 ?
Ans: 4.46

Q: Which logP value is on record for Cn1cc(C(=O)N(Cc2ccccc2C2=CCCCCC2)C2CC2)c(C(F)F)c1 ?
Ans: 4.93

Q: Which logP value is on record for Cn1cc(C(=O)N(Cc2cc(Cl)ccc2C2=CCCCC2)C2CC2)c(C(F)F)c1 ?
Ans: 4.93

Q: Which logP value is on record for O=C(c1ccsc1I)N(Cc1cc(Cl)ccc1C1=CCCCCC1)C1CC1 ?
Ans: 6.27

Q: Which logP value is on record for CC1CC=C(c2ccc(F)cc2CN(C(=S)c2c(C(F)F)nn(C)c2Cl)C2CC2)CC1 (racemic) ?
Ans: 5.77

Q: Which logP value is on record for Cn1cc(C(=O)N(Cc2cc(Cl)ccc2C2=CCCC2)C2CC2)c(C(F)F)c1 ?
Ans: 4.58

Q: Which logP value is on record for O=C(c1ccsc1I)N(Cc1cc(Cl)ccc1C1=CCCCC1)C1CC1 ?
Ans: 5.78

Q: Which logP value is on record for Cn1nc(C(F)F)c(C(=O)N(Cc2cc(Cl)ccc2C2=CCCCC2)C2CC2)c1Cl ?
Ans: 5.11

Q: Which logP value is on record for Cn1nc(C(F)F)c(C(=O)N(Cc2cc(Cl)ccc2C2=CCCC2)C2CC2)c1F ?
Ans: 4.54

Q: Which logP value is on record for Cn1nc(C(F)F)c(C(=O)N(Cc2ccccc2C2=CCCCC2)C2CC2)c1Cl ?
Ans: 4.66

Q: Which logP value is on record for Cn1nc(C(F)F)c(C(=O)N(Cc2cc(Cl)ccc2C2=CCCCC2)C2CC2)c1F ?
Ans: 4.88

Q: Which logP value is on record for O=C(c1ccsc1I)N(Cc1cc(C2=CCCCC2)ccc1Cl)C1CC1 ?
Ans: 5.87

Q: Which logP value is on record for Cn1nc(C(F)F)c(C(=O)N(Cc2cc(C3=CCCC3)ccc2Cl)C2CC2)c1F ?
Ans: 4.59

Q: Which logP value is on record for Cn1cc(C(=O)N(Cc2cc(C3=CCCCC3)ccc2Cl)C2CC2)c(C(F)F)c1 ?
Ans: 4.93

Q: Which logP value is on record for Cn1nc(C(F)F)c(C(=O)N(Cc2c(C(F)(F)F)ccc(C3=CCCC3)c2F)C2CC2)c1F ?
Ans: 4.81

Q: Which logP value is on record for O=C(c1ccsc1I)N(Cc1ccccc1C1=CCCCC1)C1CC1 ?
Ans: 5.22

Q: Which logP value is on record for Cn1cc(C(=O)N(Cc2ccccc2C2=CCCCC2)C2CC2)c(C(F)F)c1 ?
Ans: 4.46

Q: Which logP value is on record for Cn1nc(C(F)F)c(C(=O)N(Cc2cc(C3=CCCCC3)ccc2Cl)C2CC2)c1Cl ?
Ans: 5.14

Q: Which logP value is on record for CC1CC=C(c2ccc(Cl)cc2CN(C(=O)c2c(C(F)F)nn(C)c2F)C2CC2)CC1 (racemic) ?
Ans: 5.36
